Test System: HCV Core 134-171-TT peptide (ALRZ-9 peptide) (HCV-1)
Assay Method Text: SPR, captured mAb;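 note: Anti-HCV Core mAbs from hybridoma supernatants held on a rabbit anti-mouse IgG CM5 surface, peptide flowed over 3 min then 4 min dissociation, duplicate concentrations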
I'd be grateful if you could share measured pKd for these entries.
As a rule, pKd stands for the negative log10 of the concentration, concentration in M.

// query Give the reported value of pKd for this record: HCV 208A-830 (antibody, V domains shown) VH: EVRLQQPGPEVEKPGASVKISCKTSGYTFTEYAIHWVKQSHGESLEWIGGINPSNGDPIYNQIFKDKATLTVDRSSNTAYMGLRSLTVGDSGVYFCVRRQLDYFDFWGQGASLTVSS VL: DIVLTQSPASLAVSLGQRATISCRSSQSVSTSRYSYLHWYQQKPGQPPKLLIKYASNLESGVPARFSGSGSGTDFTLNIHPVGEEDPATYYCQHSWEFPFTFGSGTKLEIKR
// result 9.80

// query Give me measured pKd, please, for this binder: HCV 208A-557 (antibody, V domains shown) VH: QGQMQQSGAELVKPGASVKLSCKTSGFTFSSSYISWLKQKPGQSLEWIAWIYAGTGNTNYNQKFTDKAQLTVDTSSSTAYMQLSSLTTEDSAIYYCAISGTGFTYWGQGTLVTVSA VL: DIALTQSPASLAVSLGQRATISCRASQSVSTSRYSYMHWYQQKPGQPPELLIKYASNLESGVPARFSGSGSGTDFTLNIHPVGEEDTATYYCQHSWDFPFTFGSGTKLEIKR
// result 10.04

// query Give the value of pKd reported for the following: HCV 208B-1094 (antibody, V domains shown) VH: EVQLQQSGPELVKPGASVKISCKTSGYTFTEYAMHWMKQSHGKSLEWIGGINPTNGDTIYNQRFKDKAKLTVDRSSSTAYMELRSLTSDDSALFYCARRELDYFASWGQGTTLTVSS VL: DIVLTQSPASLIVSLGQTATISCRASQSLSTSRFSYVHWIQQKPGQPPKLLIKYASNLESGVPVRFSGSGSGTDFTLNIHPVEEEDTATYFCQHSWEFPFTFGSGTKLKIKR
// result 9.80

The reported numbers originate from patent US9371374.
